Substrate: O=[N+]([O-])c1ccc2c(c1)OCO2
testDescription: purified protein
Assay type: biochemical, Thermothelomyces thermophilus
conditionsUsed: H2O2 as saturating co-substrate; 20 nM enzyme; standard deviation <18%

>  <protein>
MthUPO (Thermothelomyces thermophilus ATCC 42464; F75Q/L76F/S175G) (protein, secreted from S. cerevisiae, purified; 245 AA plus C-terminal TwinStrep-GFP11 tag; heme-thiolate) AGFDTWSPPGPYDVRAPCPMLNTLANHGFLPHDGKDITREQTENALFEALHINKTLASQFFDFALTTNPKNTSTFSLNDLGNHNILEHDASLSRADAYFGNVLQFNQTVFDETKTYWEGDTIDLRMAAKARLGRIKTSQATNPTYSMSELGDAFTYGEGAAYVVVLGDKESRTVKRSWVEWFFEHEQLPQHLGWKRPAASFEEEDLNSSMEEIEKYTKELEGSNSTSGSQKHRRRLPRRRAHFGF

>  <kcat/Km>
160000 M⁻¹ s⁻¹

$$$$
